Recorded values, source paper PMC6983046.

- Tested on: HDF: normal human embryonic lung fibroblasts
- assay-text: Cell viability (CCK8) assay, HDF normal cells
- Format: cell-based
- study-conditions: CCK8, 48 h
readout: IC50 (µM)
Respond with the bare value in µM.

Notebook: O=c1[nH]cc(F)c(=O)[nH]1 [Compound 5-FU, reference compound] , IC50 read as 51.1

----------
// pIC50 lookup, one value per entry
- Tested on: A549: human lung cancer cells
- assay-text: Cell viability (CCK8) assay, A549
- Type: cell-based
- study-conditions: CCK8, 48 h
When answering, recall that pIC50 equals minus log10 of the concentration in mol/L, and write that number alone.

The observed pIC50 for O=c1[nH]cc(F)c(=O)[nH]1 [Compound 5-FU, reference compound] when tested with A549: human lung cancer cells stands at 4.46

The observed pIC50 for `COC(=O)/C(=C\C(=O)c1cc(O)ccc1O)CC/C=C(\CO)CC/C=C(\C)COC(=O)/C=C/c1ccc(O)cc1` when tested with A549: human lung cancer cells stands at 4.14
